# MEASUREMENT_PROTOCOL: OD615 S. cerevisiae growth inhibition, permissive medium, pilot counter-assay, permissive growth control for S. cerevisiae lifespan shortening project (AID 705)
# RUN_CONDITIONS: OD615, 24 h, at 10 µM, stronger effect = higher value
Below is a list of entries, each paired with its recorded growth inhibition value.
Please respond with the number in % and leave the unit unwritten.

# COMPOUND, QUANTITY_MEASURED, OBS_VALUE
data = [
    ("CC(=O)OCCn1c(=O)c2cc3c(=O)n(CCOC(C)=O)c(=O)c3cc2c1=O", "growth inhibition", -7.22),
    ("COc1ccc2c(c1)c(CCN1C(=O)c3ccccc3C1=O)cn2C(=O)c1ccco1", "growth inhibition", -5.41),
    ("COCc1cc(=O)n2[nH]c(-c3cccc(Br)c3)cc2n1", "growth inhibition", -25.1),
    ("O=C(Nc1ccccc1)c1ccccc1O", "growth inhibition", 1.28),
    ("c1ccc(N2CCN(c3ncnc4c3oc3ccccc34)CC2)cc1", "growth inhibition", -16.2),
]

Quick one: growth inhibition for `CCOc1ccc(CCNC(=O)c2oc3c(c2C)-c2[nH]ncc2CC3)cc1OCC` ?
-11.9

Quick one: growth inhibition for `CCCCN(CC)CCNC(=O)Cn1cnc2sc(C)c(S(=O)(=O)N3CCOCC3)c2c1=O` ?
-7.83

Quick one: growth inhibition for `CC1(C)Cc2c(C#N)c(NCCCO)nc(-c3ccccc3)c2CO1` ?
-7.54

Quick one: growth inhibition for `CSCC[C@@H](C(=O)Nc1ccc2c(c1)OCCO2)N1Cc2ccccc2C1=O` ?
3.3

Quick one: growth inhibition for CCOc1ccc(C(=O)CCNC(Cc2cnc[nH]2)C(=O)O)cc1 (stereo unspecified) ?
5.56

Quick one: growth inhibition for CC(=O)N=C1SC2CS(=O)(=O)CC2N1c1c(Cl)cccc1Cl (stereo unspecified) ?
5.46
